Entry source: patent US8546343B2

// reported minimal inhibitory concentrations ΔrrnB 1491C per item
system: M. smegmatis ΔrrnB 1491C (16S rRNA position 1491 C, eukaryotic mitochondrial ribosome); test: MIC, recombinant M. smegmatis with mutant ribosomes 1491C; assay type: cell-based, Mycobacterium smegmatis; conditions: M. smegmatis ΔrrnB 1491C mutant ribosomes; 72 h at 37° C.
property.name: minimal inhibitory concentrations ΔrrnB 1491C

{"columns": ["compound", "value.observed"],
 "data": [
  ["COc1ccccc1[C@@H]1OC[C@H]2O[C@H](O[C@H]3[C@H](O[C@@H]4O[C@H](CO)[C@@H](O[C@H]5O[C@@H](CN)[C@@H](O)[C@H](O)[C@H]5N)[C@H]4O)[C@@H](O)[C@H](N)C[C@@H]3N)[C@H](N)[C@@H](O)[C@@H]2O1", ">512 mg/L"],
  ["NC[C@@H]1O[C@H](O[C@H]2[C@@H](O)[C@H](O[C@@H]3[C@@H](O)[C@H](N)C[C@H](N)[C@H]3O[C@H]3O[C@@H]4CO[C@@H](c5ccc(Cl)cc5)O[C@H]4[C@H](O)[C@H]3N)O[C@@H]2CO)[C@H](N)[C@@H](O)[C@@H]1O", ">512 mg/L"],
  ["CN(C)c1ccc([C@@H]2OC[C@H]3O[C@H](O[C@H]4[C@H](O[C@@H]5O[C@H](CO)[C@@H](O[C@H]6O[C@@H](CN)[C@@H](O)[C@H](O)[C@H]6N)[C@H]5O)[C@@H](O)[C@H](N)C[C@@H]4N)[C@H](N)[C@@H](O)[C@@H]3O2)cc1", ">512 mg/L"],
  ["NC[C@@H]1O[C@H](O[C@H]2[C@@H](O)[C@H](O[C@@H]3[C@@H](O)[C@H](N)C[C@H](N)[C@H]3O[C@H]3O[C@H](CO)[C@@H](OCCCc4ccccc4)[C@H](O)[C@H]3N)O[C@@H]2CO)[C@H](N)[C@@H](O)[C@@H]1O [Compound 19c, 4′-p-(3-phenylpropyl)paromomycin]", "512 mg/L"]
]}

* * *

test system: AG006 E. coli BM13; experiment: Standard MIC assay, AG006; type: cell-based, Escherichia coli
property.name: Minimal inhibitory concentrations AG006 (µg/mL)

{"columns": ["molecule", "value.observed"],
 "data": [
  ["NC[C@H]1O[C@H](O[C@H]2[C@H](O)[C@@H](O[C@H]3O[C@H](CO)[C@@H](O)[C@H](N)[C@H]3O)[C@H](N)C[C@@H]2N)[C@H](O)[C@@H](O)[C@@H]1O [Kanamycin A, kanamycin A, reference compound]", 8],
  ["NC[C@@H]1O[C@H](O[C@H]2[C@@H](O)[C@H](O[C@@H]3[C@@H](O)[C@H](N)C[C@H](N)[C@H]3O[C@H]3O[C@@H]4CO[C@@H](c5ccc(Cl)cc5)O[C@H]4[C@H](O)[C@H]3N)O[C@@H]2CO)[C@H](N)[C@@H](O)[C@@H]1O", 64],
  ["NC[C@@H]1O[C@H](O[C@H]2[C@@H](O)[C@H](O[C@@H]3[C@@H](O)[C@H](N)C[C@H](N)[C@H]3O[C@H]3O[C@@H]4CO[C@@H](c5ccccc5)O[C@H]4[C@H](O)[C@H]3N)O[C@@H]2CO)[C@H](N)[C@@H](O)[C@@H]1O", 32],
  ["NC[C@@H]1O[C@H](O[C@H]2[C@@H](O)[C@H](O[C@@H]3[C@@H](O)[C@H](N)C[C@H](N)[C@H]3O[C@H]3O[C@@H]4CO[C@@H](c5ccc(C(F)(F)F)cc5)O[C@H]4[C@H](O)[C@H]3N)O[C@@H]2CO)[C@H](N)[C@@H](O)[C@@H]1O", 32],
  ["NC[C@@H]1O[C@H](O[C@H]2[C@@H](O)[C@H](O[C@@H]3[C@@H](O)[C@H](N)C[C@H](N)[C@H]3O[C@H]3O[C@@H]4COC(C=Cc5ccccc5)O[C@H]4[C@H](O)[C@H]3N)O[C@@H]2CO)[C@H](N)[C@@H](O)[C@@H]1O (stereo partly drawn)", 32]
]}

* * *

test system: AG019 E. faecalis JH2-2 (APH2″ AAC6′); assay: Standard MIC assay, AG019; assay type: cell-based, Enterococcus faecalis; settings: E. faecalis JH2-2 (APH2″ AAC6′)
property.name: Minimal inhibitory concentrations AG019

{"columns": ["molecule", "assay.system", "value.observed"],
 "data": [
  ["NC[C@@H]1O[C@H](O[C@H]2[C@@H](O)[C@H](O[C@@H]3[C@@H](O)[C@H](N)C[C@H](N)[C@H]3O[C@H]3O[C@H](CO)[C@@H](OCc4ccc(Cl)cc4)[C@H](O)[C@H]3N)O[C@@H]2CO)[C@H](N)[C@@H](O)[C@@H]1O [Compound 19a, 4′-p-chlorobenzylparomomycin]", "AG019 E. faecalis JH2-2 (APH2″ AAC6′)", "32 to 64 µg/mL"],
  ["NC[C@@H]1O[C@H](O[C@H]2[C@@H](O)[C@H](O[C@@H]3[C@@H](O)[C@H](N)C[C@H](N)[C@H]3O[C@H]3O[C@@H]4CO[C@@H](c5ccc(C(F)(F)F)cc5)O[C@H]4[C@H](O)[C@H]3N)O[C@@H]2CO)[C@H](N)[C@@H](O)[C@@H]1O [Compound 5.17]", "AG019 E. faecalis JH2-2 (APH2″ AAC6′)", "128 µg/mL"],
  ["NC[C@@H]1O[C@H](O[C@H]2[C@@H](O)[C@H](O[C@@H]3[C@@H](O)[C@H](N)C[C@H](N)[C@H]3O[C@H]3O[C@@H]4CO[C@@H](CCc5ccccc5)O[C@H]4[C@H](O)[C@H]3N)O[C@@H]2CO)[C@H](N)[C@@H](O)[C@@H]1O [Compound 5.25]", "AG019 E. faecalis JH2-2 (APH2″ AAC6′)", "32 µg/mL"],
  ["NC[C@@H]1O[C@H](O[C@H]2[C@@H](O)[C@H](O[C@@H]3[C@@H](O)[C@H](N)C[C@H](N)[C@H]3O[C@H]3O[C@H](CO)[C@@H](OCCCc4ccccc4)[C@H](O)[C@H]3N)O[C@@H]2CO)[C@H](N)[C@@H](O)[C@@H]1O [Compound 19c, 4′-p-(3-phenylpropyl)paromomycin]", "AG019 E. faecalis JH2-2 (APH2″ AAC6′)", "32 µg/mL"],
  ["NC[C@@H]1O[C@H](O[C@H]2[C@@H](O)[C@H](O[C@@H]3[C@@H](O)[C@H](N)C[C@H](N)[C@H]3O[C@H]3O[C@@H]4CO[C@@H](c5ccccc5)O[C@H]4[C@H](O)[C@H]3N)O[C@@H]2CO)[C@H](N)[C@@H](O)[C@@H]1O [Compound 5.1, 4′,6′-O-benzylideneparomomycin]", "AG019 E. faecalis JH2-2 (APH2″ AAC6′)", "256 µg/mL"],
  ["NC[C@H]1O[C@H](O[C@H]2[C@H](O)[C@@H](O[C@H]3O[C@H](CO)[C@@H](O)[C@H](N)[C@H]3O)[C@H](N)C[C@@H]2N)[C@H](O)[C@@H](O)[C@@H]1O [Kanamycin A, kanamycin A, reference compound]", "AG019 E. faecalis JH2-2 (APH2″ AAC6′)", ">256 µg/mL"],
  ["NC[C@@H]1O[C@H](O[C@H]2[C@@H](O)[C@H](O[C@@H]3[C@@H](O)[C@H](N)C[C@H](N)[C@H]3O[C@H]3O[C@@H]4CO[C@@H](c5ccc6ccccc6c5)O[C@H]4[C@H](O)[C@H]3N)O[C@@H]2CO)[C@H](N)[C@@H](O)[C@@H]1O [Compound 5.20, 4′,6′-O-2-Naphthylideneparomomycin]", "AG019 E. faecalis JH2-2 (APH2″ AAC6′)", "8 to 16 µg/mL"],
  ["NC[C@@H]1O[C@H](O[C@H]2[C@@H](O)[C@H](O[C@@H]3[C@@H](O)[C@H](N)C[C@H](N)[C@H]3O[C@H]3O[C@@H]4CO[C@@H](c5ccc(Cl)cc5)O[C@H]4[C@H](O)[C@H]3N)O[C@@H]2CO)[C@H](N)[C@@H](O)[C@@H]1O [Compound 5.8, 4′,6′-O-p-Chlorobenzylideneparomomycin]", "AG019 E. faecalis JH2-2 (APH2″ AAC6′)", "64 µg/mL"],
  ["NC[C@@H]1O[C@H](O[C@H]2[C@@H](O)[C@H](O[C@@H]3[C@@H](O)[C@H](N)C[C@H](N)[C@H]3O[C@H]3O[C@@H]4COC(C=Cc5ccccc5)O[C@H]4[C@H](O)[C@H]3N)O[C@@H]2CO)[C@H](N)[C@@H](O)[C@@H]1O (stereo partly drawn) [Compound 5.26]", "AG019 E. faecalis JH2-2 (APH2″ AAC6′)", "64 to 128 µg/mL"]
]}

* * *

tested on: AG015 S. aureus BM3002 (ANT4′); assay: Standard MIC assay, AG015; format: cell-based, Staphylococcus aureus; conditions: S. aureus BM3002 (ANT4′)

{"columns": ["compound", "scale.unit", "Minimal inhibitory concentrations AG015"],
 "data": [
  ["NC[C@@H]1O[C@H](O[C@H]2[C@@H](O)[C@H](O[C@@H]3[C@@H](O)[C@H](N)C[C@H](N)[C@H]3O[C@H]3O[C@@H]4CO[C@@H](c5ccc(Cl)cc5)O[C@H]4[C@H](O)[C@H]3N)O[C@@H]2CO)[C@H](N)[C@@H](O)[C@@H]1O [Compound 5.8, 4′,6′-O-p-Chlorobenzylideneparomomycin]", "µg/mL", 16],
  ["NC[C@@H]1O[C@H](O[C@H]2[C@@H](O)[C@H](O[C@@H]3[C@@H](O)[C@H](N)C[C@H](N)[C@H]3O[C@H]3O[C@@H]4CO[C@@H](c5ccc(C(F)(F)F)cc5)O[C@H]4[C@H](O)[C@H]3N)O[C@@H]2CO)[C@H](N)[C@@H](O)[C@@H]1O [Compound 5.17]", "µg/mL", 32],
  ["NC[C@H]1O[C@H](O[C@H]2[C@H](O)[C@@H](O[C@H]3O[C@H](CO)[C@@H](O)[C@H](N)[C@H]3O)[C@H](N)C[C@@H]2N)[C@H](O)[C@@H](O)[C@@H]1O [Kanamycin A, kanamycin A, reference compound]", "µg/mL", 256]
]}
